Tested on: XIP peptide (Xip251-270)
Experiment: small-molecule binders of XIP peptide, primary screen, biochemical, small-molecule microarray, fluorescence 635/667 nm, 0.5 µg/mL protein (AID 1183)
Settings: small-molecule microarray binding, fluorescence 635 nm; higher = more signal
QUANTITY_KIND: composite z-score

QUERY: What value of composite z-score has been reported for the following molecule? "COCCn1c(C(=O)N2CCCC2)cc2c1C[C@H]1CN(C(=O)c3ccccc3)[C@@](Cc3ccc(F)cc3)(C(=O)OC)[C@@H]21"
RESULT: 0.794

* * *

Test: E. coli acrAB mutant growth effects, primary screen, E. coli filamentation inducers, strain DRC39, OD650, 24 h (AID 1178);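 further: growth measured as culture turbidity by optical density at 650 nm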
Conditions: higher = more signal, called active from +8 up or from −8 down
z-score of 0.07 or higher: TRUE. Under 0.07: FALSE.

Solved entries (count: 5):
>  <COMPOUND>
COc1ccc(C#Cc2ccc3c(c2)[C@]2(C(=O)N3)[C@H](c3ccccc3OCCO)N3[C@H](c4ccccc4)[C@H](c4ccccc4)OC(=O)[C@H]3[C@@H]2C(=O)O)cc1

>  <QUALITATIVE_LABEL>
TRUE

$$$$
>  <COMPOUND>
CC(C)C(CO)N1C(=O)[C@@H]2[C@H]3C(=O)OCC=C[C@H]3OC23C=CCN(C(C)C)C(=O)[C@@H]13 (stereo partly specified)

>  <QUALITATIVE_LABEL>
TRUE

$$$$
>  <COMPOUND>
CC(=O)n1cc(C(O)C2C=CC3C(=O)N(C)C(=O)C3N2Nc2ccccc2)c2ccccc21 (stereo unspecified)

>  <QUALITATIVE_LABEL>
FALSE

$$$$
>  <COMPOUND>
COc1cc2c(cc1O)C=[N+](Cc1cccc(OC(F)(F)F)c1)CC2

>  <QUALITATIVE_LABEL>
FALSE

$$$$
>  <COMPOUND>
Cc1ccc(C(C)CC(O)C2C=CC3C(=O)N(C)C(=O)C3N2NC(=O)OC(C)(C)C)o1 (stereo unspecified)

>  <QUALITATIVE_LABEL>
FALSE

$$$$

Shift focus to the following entry.
QUERY: Exam item: decide whether the reported z-score for "O=C1O[C@H](c2ccccc2)[C@H](c2ccccc2)N2[C@H]1[C@@H](C(=O)NC[C@H](O)c1ccccc1)[C@]1(C(=O)Nc3ccccc31)[C@H]2c1ccc(OCCO)cc1" is at least 0.07.
RESULT: TRUE

* * *

Test: small-molecule binders of probe aLefty1, primary screen, biochemical, small-molecule microarray, 635/667 nm fluorescence (AID 1153);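 further: score merges spot fluorescence with signal-to-noise ratio from the scanned slide images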
Settings: higher = more signal
composite z-score of 0.1 or higher: Met. Under 0.1: Not met.

Solved entries (count: 6):
>  <COMPOUND>
C[C@@H]1ON(c2cccc(C(=O)OC(C)(C)C)c2)[C@H](c2ccc(Br)cc2)[C@H]1C(=O)N1C(=O)OC[C@H]1Cc1ccccc1

>  <QUALITATIVE_LABEL>
Met

$$$$
>  <COMPOUND>
O=C1C2C=CC(C(O)C(c3ccccc3)c3ccccc3)N(n3cnnc3)C2C(=O)N1Cc1ccccc1 (centres undefined)

>  <QUALITATIVE_LABEL>
Met

$$$$
>  <COMPOUND>
CCCCCCC#C[Si](O[C@H](c1ccccc1)c1cn([C@H](CO)Cc2ccccc2)nn1)(C(C)C)C(C)C

>  <QUALITATIVE_LABEL>
Not met

$$$$
>  <COMPOUND>
CCCCN1CC=CC23O[C@@H]4C=CCOC(=O)[C@@H]4[C@H]2C(=O)N(CCCCCO)[C@@H]3C1=O (some centres undefined)

>  <QUALITATIVE_LABEL>
Met

$$$$
>  <COMPOUND>
COc1ccc(CCN2C(=O)[C@@]3(c4ccc([N+](=O)[O-])cc4)CC(=O)N(C4CCCCC4)[C@@H]3c3ccc(CO)cc32)cc1

>  <QUALITATIVE_LABEL>
Met

$$$$
>  <COMPOUND>
COc1ccc(C(=O)Nc2ccc(CN3C(=O)[C@@]4(O[C@@H](CCn5cc([C@H](O)c6ccccc6)nn5)[C@H]([Si](C)(C)c5ccc(OC)cc5)[C@H]4C)c4ccccc43)cc2)cc1

>  <QUALITATIVE_LABEL>
Met

$$$$

QUERY: Exam item: decide whether the reported composite z-score for "COCCn1c(C(=O)N2CCCC2)cc2c1C[C@H]1CN(C(=O)c3ccccc3)[C@@](Cc3ccc(F)cc3)(C(=O)OC)[C@@H]21" is at least 0.1.
RESULT: Met

QUERY: Also, "CN(C)CCCNC(=O)[C@@]1(c2ccc([N+](=O)[O-])cc2)CC(=O)N(C2CCCCC2)[C@@H]1c1ccc(CO)cc1" please.
RESULT: Not met

QUERY: Also, "C=CCNC(=O)[C@H]1[C@@H]2C(=O)O[C@@H](c3ccccc3)[C@@H](c3ccccc3)N2[C@@H](c2ccc(OCCO)cc2)[C@]12C(=O)N(C(=O)OCCOC)c1ccccc12" please.
RESULT: Met

* * *

Each entry below carries its reported composite z-score.
Experiment: small-molecule microarray binders of probe aShh, primary screen, biochemical, biotinylated probe, 635/667 nm fluorescence (AID 1114);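 further: probe is biotin-labelled aShh protein from a stem cell growth factor screen; measures binding of labelled protein to compounds printed on the slide; score merges feature fluorescence at 667 nm with signal-to-noise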
Details: higher = more signal
Please give the numeric answer without any surrounding text.

Sample records with composite z-score:
>  <COMPOUND>
CC(C)C(=C=CC[C@@H](O)c1ccccc1OCCO)CCO

>  <QUANTITY_KIND>
composite z-score

>  <RECORDED_MEASUREMENT>
-0.0471

$$$$
>  <COMPOUND>
COCCOC(=O)N1C(=O)[C@@]2(c3cc(C#Cc4ccc(OC)cc4)ccc31)[C@H](c1ccccc1OCCO)N1[C@H](c3ccccc3)[C@H](c3ccccc3)OC(=O)[C@H]1[C@@H]2C(=O)N1CCN(c2ncccn2)CC1

>  <QUANTITY_KIND>
composite z-score

>  <RECORDED_MEASUREMENT>
0.13

$$$$
>  <COMPOUND>
C=CCC(OC(C)=O)[C@@H]1[C@@H](N(Cc2cccc3ccccc23)C(=O)c2ccc(-c3ccccc3)cc2)c2cc(OCCCO)ccc2N1C(=O)Cc1ccc(OC)cc1 (stereo not given in full)

>  <QUANTITY_KIND>
composite z-score

>  <RECORDED_MEASUREMENT>
0.149

$$$$
>  <COMPOUND>
C=CCN1C(=O)[C@@]2(O[C@@H](CCO)[C@H]([Si](C)(C)c3ccc(OC)cc3)[C@H]2C)c2cc(NC(=O)c3ccc(OC)cc3)ccc21

>  <QUANTITY_KIND>
composite z-score

>  <RECORDED_MEASUREMENT>
0.0062

$$$$
>  <COMPOUND>
C=C(COC)/C(=C/C[C@@H](OC(C)=O)c1ccc(CO)o1)c1cnc2ccccc2c1

>  <QUANTITY_KIND>
composite z-score

>  <RECORDED_MEASUREMENT>
-0.0146

$$$$

QUERY: What value of composite z-score has been reported for the following compound? "Cc1ccc(S[C@]2(C(=O)NC3CC3)CC(=O)N(C3Cc4ccccc4C3)[C@@H]2c2ccc(CO)cc2)cc1"
RESULT: -0.154

QUERY: Also, "COc1ccc([Si](C)(C)[C@H]2[C@H](CCn3cc([C@H](O)c4ccccc4)nn3)O[C@@]3(C(=O)N(Cc4cccc(N5CCOC5=O)c4)c4ccccc43)[C@@H]2C)cc1" please.
RESULT: -0.349

QUERY: Also, C=CCC(OC(C)=O)[C@@H]1[C@@H](N(Cc2ccc(-c3cccc(C(F)(F)F)c3)o2)C(=O)c2ccc(-c3ccccc3)cc2)c2cc(OCCCO)ccc2N1C(=O)c1ccc(-c2ccccc2)cc1 (stereo not given in full) please.
RESULT: 0.275

QUERY: Also, "CC[C@@H]1C=C(C(=O)O)[C@H](c2ccco2)N1S(=O)(=O)c1ccc(C)cc1" please.
RESULT: -0.0146

QUERY: Also, "COc1ccc(C(=O)Nc2cccc(CN3C(=O)[C@]4(O[C@H](CCO)[C@@H]([Si](C)(C)c5ccc(OC)cc5)[C@@H]4C)c4ccccc43)c2)cc1" please.
RESULT: -0.133

* * *

Assay: small-molecule microarray binders of probe aEGFR, primary screen, biochemical, biotinylated probe, 635/667 nm fluorescence (AID 1097);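 further: probe is a biotinylated anti-EGFR antibody binding compounds printed on slides; score combines fluorescence near 667 nm and signal to noise of each spot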
Conditions: higher = more signal
composite z-score of -0.1 or higher: Fulfilled. Under -0.1: Not fulfilled.

Solved entries (count: 3):
>  <MOLECULE>
CC(C)C(=C=CC[C@@H](O)c1ccccc1OCCO)CCO

>  <QUALITATIVE_LABEL>
Fulfilled

$$$$
>  <MOLECULE>
CCCCN1CC=CC23O[C@@H]4C=CCOC(=O)[C@@H]4[C@H]2C(=O)N(CCCCCO)[C@@H]3C1=O (stereo partly specified)

>  <QUALITATIVE_LABEL>
Not fulfilled

$$$$
>  <MOLECULE>
CC(=O)NCCCC[C@@H]1NC(=O)[C@@H]2C[C@H](C(=O)NCCCCN(C)C)[C@H](c3cccc(OCCO)c3)N2C1=O

>  <QUALITATIVE_LABEL>
Not fulfilled

$$$$

QUERY: Exam item: decide whether the reported composite z-score for COc1cc2c(cc1O)C(C1CC1)N(Cc1cc3c(cc1Br)OCO3)CC2 (stereo unspecified) is at least -0.1.
RESULT: Not fulfilled

QUERY: Also, O=C1C2C=CC(C(O)c3ccc(F)cc3)N(Nc3ccccc3F)C2C(=O)N1c1ccccc1 (stereo unspecified) please.
RESULT: Fulfilled

QUERY: Also, CCOc1cc(C(O)C2C=CC3C(=O)N(c4ccccc4)C(=O)C3N2Nc2ccccc2)ccc1O (stereo unspecified) please.
RESULT: Fulfilled

QUERY: Also, "COc1cc2c(cc1OC)CN(C(=O)[C@@H]1[C@H]3C(=O)O[C@H](c4ccccc4)[C@H](c4ccccc4)N3[C@H](c3ccc(O)cc3)[C@@]13C(=O)Nc1ccc(C#CC4(O)CCCCCC4)cc13)CC2" please.
RESULT: Fulfilled
